Taken from patent US20150086555A1.

- TARGET SYSTEM: recombinant soluble homotrimeric HA of A/Hong Kong/156/97 (H5N1) (Influenza A virus A/Hong Kong/156/97 (H5N1))
- TEST NAME: trimeric HA microarray, transfection supernatant set 5
- PARTICULARS: remark: other sources report otherwise
MEASURED PARAMETER: Trimeric HA Binding: RLU (RLU)
Answers are plain numbers, in RLU.

Recorded results for 3 binders are shown here.
TCN-540 (5060_F05) (antibody, V domains shown) VH: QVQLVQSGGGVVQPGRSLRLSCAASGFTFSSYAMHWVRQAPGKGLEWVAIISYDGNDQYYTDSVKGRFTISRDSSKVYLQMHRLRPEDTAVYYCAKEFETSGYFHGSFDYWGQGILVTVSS VL: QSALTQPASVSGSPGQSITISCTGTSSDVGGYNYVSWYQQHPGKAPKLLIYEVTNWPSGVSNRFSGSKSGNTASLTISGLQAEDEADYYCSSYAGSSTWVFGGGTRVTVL	1550
TCN-542 (5079_A16) (antibody, V domains shown) VH: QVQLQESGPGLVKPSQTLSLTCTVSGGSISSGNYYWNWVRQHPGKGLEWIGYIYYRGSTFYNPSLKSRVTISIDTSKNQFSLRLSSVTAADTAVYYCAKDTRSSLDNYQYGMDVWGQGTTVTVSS VL: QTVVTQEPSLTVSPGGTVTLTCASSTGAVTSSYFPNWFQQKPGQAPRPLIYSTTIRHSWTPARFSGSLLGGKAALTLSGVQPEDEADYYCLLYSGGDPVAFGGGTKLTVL	786
TCN-546 (5089_L08) (antibody, V domains shown) VH: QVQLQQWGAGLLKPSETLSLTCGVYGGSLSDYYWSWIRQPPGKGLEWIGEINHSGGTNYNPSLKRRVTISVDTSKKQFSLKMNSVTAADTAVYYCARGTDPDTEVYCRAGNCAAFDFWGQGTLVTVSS VL: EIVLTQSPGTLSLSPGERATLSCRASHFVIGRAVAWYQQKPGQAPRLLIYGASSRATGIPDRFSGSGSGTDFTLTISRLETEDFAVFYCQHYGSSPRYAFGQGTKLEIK	1240

Consider the record given below.
# return recorded Trimeric HA Binding: RLU for entry TCN-539 (5056_A08) (antibody, V domains shown) VH: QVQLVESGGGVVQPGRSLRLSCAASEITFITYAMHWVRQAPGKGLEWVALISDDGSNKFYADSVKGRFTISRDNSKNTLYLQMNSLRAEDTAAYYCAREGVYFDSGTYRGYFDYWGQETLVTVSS VL: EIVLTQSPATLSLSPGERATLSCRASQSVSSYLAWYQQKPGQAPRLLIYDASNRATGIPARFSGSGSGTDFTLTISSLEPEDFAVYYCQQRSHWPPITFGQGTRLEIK
1450
